Dear all, I have gathered published Ki values for Adenosine receptor A1 (Rattus norvegicus, UniProt P25099); the list follows.
Sequence (P25099 whole entry): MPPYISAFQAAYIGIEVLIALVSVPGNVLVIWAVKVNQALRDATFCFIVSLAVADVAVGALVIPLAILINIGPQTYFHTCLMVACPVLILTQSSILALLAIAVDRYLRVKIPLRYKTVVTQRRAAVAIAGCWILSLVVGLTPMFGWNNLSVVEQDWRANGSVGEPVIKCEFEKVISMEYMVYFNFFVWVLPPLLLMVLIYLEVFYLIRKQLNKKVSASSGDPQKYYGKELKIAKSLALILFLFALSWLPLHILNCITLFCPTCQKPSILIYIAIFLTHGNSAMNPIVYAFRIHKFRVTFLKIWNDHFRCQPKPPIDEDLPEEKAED
// return the numeric value with its unit appended

Example results:
- compound: "CCCn1c(=O)c2[nH]c(C34CC5CC(C3)C(O)C4C5)nc2n(CCC)c1=O (stereo not shown)"
  recorded.endpoint: "Ki"
  result: "0.24 nM"
- compound: "C[C@H](CSc1nc2cc(Cl)ccc2s1)Nc1nc(Cl)nc2c1ncn2[C@@H]1O[C@H](CO)[C@@H](O)[C@H]1O"
  recorded.endpoint: "Ki"
  result: "10 nM"
- compound: "CCCn1c(=O)c2[nH]c([C@@]34C[C@H]5C[C@@H]3C[C@@H](C4)[C@@H]5O)nc2n(CCC)c1=O"
  recorded.endpoint: "Ki"
  result: "0.23 nM"
- compound: "OC[C@H]1O[C@@H](n2cnc3c(NN4CCCC(Oc5ccccc5)C4)nc(Cl)nc32)[C@H](O)[C@@H]1O (stereo partly shown)"
  recorded.endpoint: "Ki"
  result: "11 nM"
- compound: "CCCn1c(=O)c2[nH]c([C@]34C[C@@H]5[C@@H](O)[C@H](C3)[C@H]3[C@@H]5[C@H]34)nc2n(CCC)c1=O"
  recorded.endpoint: "Ki"
  result: "0.31 nM"
- compound: "CC[C@H](CSc1nc2ccccc2s1)Nc1nc(Cl)nc2c1ncn2[C@@H]1O[C@H](CO)[C@@H](O)[C@H]1O"
  recorded.endpoint: "Ki"
  result: "7 nM"

# context switch: different compound, same Ki
Look up and report measured Ki for this entry: CCCn1c(=O)c2[nH]c(C34C[C@H]5CC3C[C@@H](C4)[C@@H]5O)nc2n(CCC)c1=O (relative stereo)
0.23 nM
